# experimental target: human 17βHSD1 (Homo sapiens, UniProt P14061)
# Sequence (P14061 whole entry): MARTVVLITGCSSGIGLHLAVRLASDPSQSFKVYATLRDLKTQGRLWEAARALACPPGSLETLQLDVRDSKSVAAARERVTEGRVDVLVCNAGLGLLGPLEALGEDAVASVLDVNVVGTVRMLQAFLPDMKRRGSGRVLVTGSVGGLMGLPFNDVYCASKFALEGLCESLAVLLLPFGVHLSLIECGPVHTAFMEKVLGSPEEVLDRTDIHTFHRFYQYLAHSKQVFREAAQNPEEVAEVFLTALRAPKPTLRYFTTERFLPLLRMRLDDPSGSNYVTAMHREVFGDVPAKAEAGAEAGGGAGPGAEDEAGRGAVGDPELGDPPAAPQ
# assay overview: 17βHSD inhibition in MCF-7 cells transfected with human 17βHSD1, E1 in supernatant
# Assay type: cell-based
# Set-up: expressed in transfected cells; host or cells: MCF-7
# experimental parameters: 8 hr., 10 μmol·l^−1
# key: entry, value: E1 in supernatant, MCF-7
observed property: E1 in supernatant, MCF-7

1) Cc1ccc(CC[C@@H]2CC(=O)[C@@]3(C)CC[C@@H]4c5ccc(O)cc5CC[C@H]4[C@H]23)cc1 :: 719 pg/mL
2) C[C@]12CC[C@@H]3c4ccc(O)cc4CC[C@H]3[C@@H]1[C@H](CCc1ccc(O)cc1)CC2=O :: 4298 pg/mL
3) C[C@]12CC[C@@H]3c4ccc(O)cc4CC[C@H]3[C@@H]1[C@H](CCc1ccc(Cl)cc1)CC2=O :: 4251 pg/mL

---

# Test system: CEM-DNR-bulk
# assay overview: MTT cytotoxicity assay, CEM-DNR-bulk
# Format: cell-based
pIC50: −log10 of the molar value.
observed property: pIC50

1) COc1ccc(CC[C@@H]2CC(=O)[C@@]3(C)CC[C@@H]4c5ccc(O)cc5CC[C@H]4[C@H]23)cc1 :: 4.65
2) C[C@]12CC[C@@H]3c4ccc(O)cc4CC[C@H]3[C@@H]1[C@H](CCc1ccc(Cl)cc1)CC2=O :: 4.61
3) C[C@]12CC[C@@H]3c4ccc(O)cc4CC[C@H]3[C@@H]1[C@H](CCc1ccc(F)cc1)CC2=O :: 4.55
4) Cc1ccc(CC[C@@H]2CC(=O)[C@@]3(C)CC[C@@H]4c5ccc(O)cc5CC[C@H]4[C@H]23)cc1 :: 4.62
5) C[C@]12CC[C@@H]3c4ccc(O)cc4CC[C@H]3[C@@H]1[C@H](CCc1ccc(O)cc1)CC2=O :: 4.51
6) COC(=O)c1ccc(CC[C@@H]2CC(=O)[C@@]3(C)CC[C@@H]4c5ccc(O)cc5CC[C@H]4[C@H]23)cc1 :: 4.48

---

# experimental target: human 17βHSD type 5 (Homo sapiens)
# Construct: made in house; host or cells: bacteria (Escherichia coli); supernatant of the lysate
# assay overview: Inhibition of recombinant 17βHSD type 5, tritium-labeled substrate conversion
# Type: biochemical
# experimental parameters: 1 μmol · l^−1 test substance
# key: entry, value: % of inhibition of human 17βHSD5
observed property: % of inhibition of human 17βHSD5 (%)

1. Cc1ccc(CC[C@@H]2CC(=O)[C@@]3(C)CC[C@@H]4c5ccc(O)cc5CC[C@H]4[C@H]23)cc1 :: 86
2. C[C@]12CC[C@@H]3c4ccc(O)cc4CC[C@H]3[C@@H]1[C@H](CCc1ccc(C(F)(F)F)cc1)CC2=O :: 89
3. C=C[C@@H]1CC(=O)[C@@]2(C)CC[C@@H]3c4ccc(O)cc4CC[C@H]3[C@H]12 :: 7

---

# experimental target: human 17βHSD type 5 (Homo sapiens)
# Construct: made in house; host or cells: bacteria (Escherichia coli); supernatant of the lysate
# assay overview: Inhibition of recombinant 17βHSD type 5, tritium-labeled substrate conversion
# Format: biochemical
# experimental parameters: 1 μmol · l^−1 test substance
observed property: % of inhibition of human 17βHSD5 (%)

1) COc1ccc(CC[C@@H]2CC(=O)[C@@]3(C)CC[C@@H]4c5ccc(O)cc5CC[C@H]4[C@H]23)cc1 [Compound 9] :: 91
2) C[C@]12CC[C@@H]3c4ccc(O)cc4CC[C@H]3[C@@H]1[C@H](CCc1ccc(O)cc1)CC2=O [Compound 14] :: 42
3) C[C@]12CC[C@@H]3c4ccc(O)cc4CC[C@H]3[C@@H]1[C@H](CCc1cc(F)c(F)c(F)c1)CC2=O [Compound 16] :: 79
4) CCOc1ccc(CC[C@@H]2CC(=O)[C@@]3(C)CC[C@@H]4c5ccc(O)cc5CC[C@H]4[C@H]23)cc1 [Compound 12] :: 80

---

# key: entry, value: IC50
# System: U2OS cells
# assay overview: Cell viability (ATP) of unmodified U2OS cells, parallel to reporter assay
# Format: cell-based, human
# experimental parameters: Homo sapiens
observed property: IC50

1) CCOc1ccc(CC[C@@H]2CC(=O)[C@@]3(C)CC[C@@H]4c5ccc(O)cc5CC[C@H]4[C@H]23)cc1 :: > 100 µM
2) COc1ccc(CC[C@@H]2CC(=O)[C@@]3(C)CC[C@@H]4c5ccc(O)cc5CC[C@H]4[C@H]23)cc1 :: > 100 µM
3) CC#C[C@]1(O)CC[C@H]2[C@@H]3CCC4=CC(=O)CCC4=C3[C@@H](c3ccc(N(C)C)cc3)C[C@@]21C [RU486, reference compound] :: 47.7 µM

---

# experimental target: human 17βHSD1 (Homo sapiens, UniProt P14061)
# assay overview: 17βHSD inhibition in CHO cells transfected with human 17βHSD1, E1 in supernatant
# Type: cell-based
# Set-up: expressed in transfected cells
# experimental parameters: 24 hr., 10 μmol·l^−1
observed property: E1 in supernatant, CHO (pg/mL)

1. C[C@]12CC[C@@H]3c4ccc(O)cc4CC[C@H]3[C@@H]1[C@H](CCc1ccc(O)cc1)CC2=O [Compound 14] :: 1054
2. Cc1ccc(CC[C@@H]2CC(=O)[C@@]3(C)CC[C@@H]4c5ccc(O)cc5CC[C@H]4[C@H]23)cc1 [Compound 15] :: 554
3. COC(=O)c1ccc(CC[C@@H]2CC(=O)[C@@]3(C)CC[C@@H]4c5ccc(O)cc5CC[C@H]4[C@H]23)cc1 [Compound 7] :: 1476
4. COc1ccc(CC[C@@H]2CC(=O)[C@@]3(C)CC[C@@H]4c5ccc(O)cc5CC[C@H]4[C@H]23)cc1 [Compound 9] :: 739
5. C[C@]12CC[C@@H]3c4ccc(O)cc4CC[C@H]3[C@@H]1[C@H](CCc1ccc(F)cc1)CC2=O [Compound 5] :: 1576
6. C[C@]12CC[C@@H]3c4ccc(O)cc4CC[C@H]3[C@@H]1[C@H](CCc1ccc(Cl)cc1)CC2=O [Compound 6] :: 1804

---

# experimental target: luciferase (Photinus pyralis, UniProt P08659)
# assay overview: Luciferase activity in U2OS cell line constitutively expressing luciferase gene
# Assay type: cell-based
# experimental parameters: read-out: Luciferase activity IC50
observed property: IC50 (µM)

1) CC#C[C@]1(O)CC[C@H]2[C@@H]3CCC4=CC(=O)CCC4=C3[C@@H](c3ccc(N(C)C)cc3)C[C@@]21C [RU486, reference compound] :: 17.9

---

# experimental target: human 17βHSD type 5 (Homo sapiens)
# Construct: made in house; host or cells: bacteria (Escherichia coli); supernatant of the lysate
# Sequence (P42330 1-323): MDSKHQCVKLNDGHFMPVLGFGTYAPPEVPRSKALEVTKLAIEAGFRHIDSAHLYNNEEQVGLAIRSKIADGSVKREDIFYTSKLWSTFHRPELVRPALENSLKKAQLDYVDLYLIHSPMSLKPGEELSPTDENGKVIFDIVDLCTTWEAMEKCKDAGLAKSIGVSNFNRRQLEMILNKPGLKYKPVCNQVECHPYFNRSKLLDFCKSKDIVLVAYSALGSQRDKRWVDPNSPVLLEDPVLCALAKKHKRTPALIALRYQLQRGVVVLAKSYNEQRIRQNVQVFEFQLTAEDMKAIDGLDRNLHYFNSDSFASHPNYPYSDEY
# assay overview: Inhibition of recombinant 17βHSD type 5, tritium-labeled substrate conversion
# Assay type: biochemical
# experimental parameters: 1 μmol · l^−1 test substance
# binarize % of inhibition of human 17βHSD5: threshold 60% inclusive, high side T, low side F

1. C[C@]12CC[C@@H]3c4ccc(O)cc4CC[C@H]3[C@@H]1[C@H](CCc1ccc(F)cc1)CC2=O [Compound 5] :: T
2. C[C@]12CC[C@@H]3c4ccc(O)cc4CC[C@H]3[C@@H]1[C@H](CCc1ccc(Cl)cc1)CC2=O [Compound 6] :: T
3. COC(=O)c1ccc(CC[C@@H]2CC(=O)[C@@]3(C)CC[C@@H]4c5ccc(O)cc5CC[C@H]4[C@H]23)cc1 [Compound 7] :: T
4. C[C@]12CC[C@@H]3c4ccc(O)cc4CC[C@H]3[C@@H]1[C@H](CCc1ccc3ccccc3c1)CC2=O [Compound 8] :: T
5. C[C@]12CC[C@@H]3c4ccc(O)cc4CC[C@H]3[C@@H]1[C@H](CCc1c(F)c(F)c(F)c(F)c1F)CC2=O [Compound 17] :: F

---

# key: entry, value: melting point
observed property: melting point (°C)

1) C[C@]12CC[C@@H]3c4ccc(O)cc4CC[C@H]3[C@@H]1[C@H](CCc1c(F)c(F)c(F)c(F)c1F)CC2=O [Compound 17] :: 151
2) COc1cccc(CC[C@@H]2CC(=O)[C@@]3(C)CC[C@@H]4c5ccc(O)cc5CC[C@H]4[C@H]23)c1 [Compound 10] :: 178
3) CCOc1ccc(CC[C@@H]2CC(=O)[C@@]3(C)CC[C@@H]4c5ccc(O)cc5CC[C@H]4[C@H]23)cc1 [Compound 12] :: 173
4) C[C@]12CC[C@@H]3c4ccc(O)cc4CC[C@H]3[C@@H]1[C@H](CCc1ccc(Cl)cc1)CC2=O [Compound 6] :: 168
5) C[C@]12CC[C@@H]3c4ccc(O)cc4CC[C@H]3[C@@H]1[C@H](CCc1ccc(C(F)(F)F)cc1)CC2=O [Compound 4] :: 168
6) C=C[C@@H]1CC(=O)[C@@]2(C)CC[C@@H]3c4ccc(O)cc4CC[C@H]3[C@H]12 [Compound 2a] :: 162

This collection of values is drawn from patent US10759826B2.
